Values from ChEMBL document CHEMBL3351450

test: Tmax in Sprague-Dawley rat at 3 mg/kg, iv; type: ADME, organism-based; set-up: dose 3 mg/kg, route intravenous; conditions: in vivo
REPORTED ENDPOINT: Tmax (min)

I: Nc1onc(-c2ccc(F)cc2)c1-c1ccncn1
II: O=C(Cc1c(F)cccc1Cl)Nc1onc(-c2ccc(F)cc2)c1-c1ccncn1
Thinking about recorded Tmax values, which is higher, I or II ? Label of pick, please.
I
(I: 30 min, II: 4.8 min)

* * *

system: Liver; test: Intrinsic clearance in human liver S9 fraction; type: ADME, subcellular
REPORTED ENDPOINT: CLint (µL/min/mg)

Fill in: CLint of O=C(Cc1ccccc1)Nc1onc(-c2ccc(F)cc2)c1-c1ccncc1 is ___
91

P: O=C(Cc1ccccc1)Nc1[nH]nc(-c2ccc(F)cc2)c1-c1ccncc1
Q: Cn1nc(NC(=O)Cc2ccccc2)c(-c2ccncc2)c1-c1ccc(F)cc1
For the pair P and Q , which entry has the numerically smaller recorded CLint? Label of pick, please.
P
